- Tested on: HUVEC
- method description: Antiproliferative activity against human HUVEC cells after 96 hrs by MTT assay
- Assay type: cell-based
Answer each item with its documented IC50.
Express the result in nM but write the number alone.

Q) Any idea what its IC50 is? The compound is Cc1cc2c(cc(O)c1=O)[C@@]13CCCC(C)(C)[C@@H]1C[C@@H]2OC3
A) 20000

Q) # query: IC50 of entry COc1cccc2c1C(=O)c1c(O)c3c(c(O)c1C2=O)C[C@@](O)(C(=O)CO)C[C@@H]3O[C@H]1C[C@H](N)[C@H](O)[C@H](C)O1
A) 30.3

Q) Reported IC50 for CO[C@@H]1[C@H](OC(=O)NC(=O)CCl)CC[C@]2(CO2)[C@H]1[C@@]1(C)O[C@@H]1CC=C(C)C : what is it?
A) 0.76
